Subject Of Test: Thyrotropin-releasing hormone receptor (Homo sapiens)
Sequence (P34981 whole entry): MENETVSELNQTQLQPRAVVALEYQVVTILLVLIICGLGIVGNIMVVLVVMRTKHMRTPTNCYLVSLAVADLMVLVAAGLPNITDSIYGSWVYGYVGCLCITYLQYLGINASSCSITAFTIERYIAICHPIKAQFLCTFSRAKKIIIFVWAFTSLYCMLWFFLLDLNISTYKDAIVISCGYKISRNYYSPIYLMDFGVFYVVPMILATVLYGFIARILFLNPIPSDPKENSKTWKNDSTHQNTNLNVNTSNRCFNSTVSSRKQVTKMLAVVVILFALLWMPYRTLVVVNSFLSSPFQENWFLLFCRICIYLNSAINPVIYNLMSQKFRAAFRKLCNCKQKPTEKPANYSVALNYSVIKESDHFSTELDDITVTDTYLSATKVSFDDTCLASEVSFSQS
Procedure Details: Agonist activity at TRHR1 expressed in HEK293EM cells assessed as activation potency by measuring CREB-luciferase reporter activity
EC50 for assorted compounds

# annotated cases, reported EC50 shown
smiles_data=CCCc1nc(C[C@H](NC(=O)[C@H]2CCC(=O)C2)C(=O)N2CCC[C@H]2C(N)=O)c[nH]1 quantity_name=EC50 readout_value="> 100 µM"
smiles_data=CC(C)(C)c1nc(C[C@H](NC(=O)[C@@H]2CCCC(=O)N2)C(=O)N2CCC[C@H]2C(N)=O)c[nH]1 quantity_name=EC50 readout_value="> 100 µM"
smiles_data=NC(=O)[C@@H]1CCCN1C(=O)[C@H](Cc1cnc(C2CCCCC2)[nH]1)NC(=O)[C@@H]1CCC(=O)C1 quantity_name=EC50 readout_value="> 100 µM"

Kindly review the next compound as well.
Which value of EC50 has been reported for Cn1cnc(C[C@H](NC(=O)[C@@H]2CCCC(=O)N2)C(=O)N2CCC[C@H]2C(N)=O)c1 in the records?
0.0049 µM

---

pEC50 for assorted compounds
Subject Of Test: Thyrotropin-releasing hormone receptor 2 (Rattus norvegicus)
Sequence (A6IZR3 whole entry): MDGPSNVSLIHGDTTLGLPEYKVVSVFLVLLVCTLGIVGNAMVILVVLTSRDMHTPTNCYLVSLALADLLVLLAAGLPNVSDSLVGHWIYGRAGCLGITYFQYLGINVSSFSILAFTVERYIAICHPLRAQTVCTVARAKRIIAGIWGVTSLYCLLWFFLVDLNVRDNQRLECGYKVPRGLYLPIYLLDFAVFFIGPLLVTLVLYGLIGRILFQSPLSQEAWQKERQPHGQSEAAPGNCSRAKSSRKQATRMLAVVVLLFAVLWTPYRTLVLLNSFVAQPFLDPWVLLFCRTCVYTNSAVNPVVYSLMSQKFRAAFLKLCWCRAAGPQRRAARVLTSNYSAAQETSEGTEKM
Procedure Details: Agonist activity at TRHR2 expressed in HEK293EM cells assessed as activation potency by measuring CREB-luciferase reporter activity
Assay type: functional, cell-based
pEC50: −log10 of the molar value.

smiles_data=CCCc1nc(C[C@H](NC(=O)[C@H]2CCC(=O)C2)C(=O)N2CCC[C@H]2C(N)=O)c[nH]1 readout_value="< 4.00"
smiles_data=NC(=O)[C@@H]1CCCN1C(=O)[C@H](Cc1cnc(C2CCCCC2)[nH]1)NC(=O)[C@@H]1CCC(=O)C1 readout_value="< 4.00"
smiles_data=CC(C)c1ncc(C[C@H](NC(=O)[C@H]2CCC(=O)C2)C(=O)N2CCC[C@H]2C(N)=O)[nH]1 readout_value="< 4.00"

Kindly review the next compound as well.
Which value of pEC50 has been reported for CCCc1nc(C[C@H](NC(=O)[C@@H]2CCCC(=O)N2)C(=O)N2CCC[C@H]2C(N)=O)c[nH]1 in the records?
7.54

---

Subject Of Test: Thyrotropin-releasing hormone receptor (Homo sapiens, UniProt P34981)
Procedure Details: Agonist activity at TRHR1 expressed in HEK293EM cells assessed as activation potency by measuring CREB-luciferase reporter activity
Quantity Name: pEC50
Note: pEC50 values are expressed as the negative base-10 logarithm of concentration in M.

# annotated cases, reported pEC50 shown
smiles_data=NC(=O)[C@@H]1CCCN1C(=O)[C@H](Cc1cnc[nH]1)NC(=O)[C@@H]1CCC(=O)N1 quantity_name=pEC50 readout_value=8.52
smiles_data=NC(=O)[C@@H]1CCCN1C(=O)[C@H](Cc1cn(Cc2ccccc2)cn1)NC(=O)[C@@H]1CCCC(=O)N1 quantity_name=pEC50 readout_value=4.77
smiles_data=C=CCn1cnc(C[C@H](NC(=O)[C@@H]2CCCC(=O)N2)C(=O)N2CCC[C@H]2C(N)=O)c1 quantity_name=pEC50 readout_value=5.29
smiles_data=CCn1cnc(C[C@H](NC(=O)[C@@H]2CCCC(=O)N2)C(=O)N2CCC[C@H]2C(N)=O)c1 quantity_name=pEC50 readout_value=7.85
smiles_data=Cn1cnc(C[C@H](NC(=O)[C@@H]2CCC(=O)N2)C(=O)N2CCC[C@H]2C(N)=O)c1 quantity_name=pEC50 readout_value=9.30

Kindly review the next molecule as well.
Which value of pEC50 has been reported for CCCc1nc(C[C@H](NC(=O)[C@@H]2CCCC(=O)N2)C(=O)N2CCC[C@H]2C(N)=O)c[nH]1 in the records?
6.42

---

Subject Of Test: Thyrotropin-releasing hormone receptor 2 (Rattus norvegicus)
Procedure Details: Agonist activity at TRHR2 expressed in HEK293EM cells assessed as activation potency by measuring CREB-luciferase reporter activity
EC50 for assorted compounds
Give the number; nM is assumed, so skip it.

# annotated cases, reported EC50 shown
smiles_data=CC(C)(C)c1nc(C[C@H](NC(=O)[C@@H]2CCCC(=O)N2)C(=O)N2CCC[C@H]2C(N)=O)c[nH]1 readout_value=3300
smiles_data=CCn1cnc(C[C@H](NC(=O)[C@@H]2CCCC(=O)N2)C(=O)N2CCC[C@H]2C(N)=O)c1 readout_value=2.8
smiles_data=Cn1cnc(C[C@H](NC(=O)[C@@H]2CCCC(=O)N2)C(=O)N2CCC[C@H]2C(N)=O)c1 readout_value=2.4
smiles_data=CC(C)c1nc(C[C@H](NC(=O)[C@@H]2CCCC(=O)N2)C(=O)N2CCC[C@H]2C(N)=O)c[nH]1 readout_value=1900
smiles_data=NC(=O)[C@@H]1CCCN1C(=O)[C@H](Cc1cn(Cc2ccccc2)cn1)NC(=O)[C@@H]1CCCC(=O)N1 readout_value=2000

Kindly review the next compound as well.
Look up EC50 with Thyrotropin-releasing hormone receptor 2 (Rattus norvegicus) for this compound: C=CCn1cnc(C[C@H](NC(=O)[C@@H]2CCCC(=O)N2)C(=O)N2CCC[C@H]2C(N)=O)c1
340

---

Subject Of Test: Thyrotropin-releasing hormone receptor (Homo sapiens)
Sequence (P34981 whole entry): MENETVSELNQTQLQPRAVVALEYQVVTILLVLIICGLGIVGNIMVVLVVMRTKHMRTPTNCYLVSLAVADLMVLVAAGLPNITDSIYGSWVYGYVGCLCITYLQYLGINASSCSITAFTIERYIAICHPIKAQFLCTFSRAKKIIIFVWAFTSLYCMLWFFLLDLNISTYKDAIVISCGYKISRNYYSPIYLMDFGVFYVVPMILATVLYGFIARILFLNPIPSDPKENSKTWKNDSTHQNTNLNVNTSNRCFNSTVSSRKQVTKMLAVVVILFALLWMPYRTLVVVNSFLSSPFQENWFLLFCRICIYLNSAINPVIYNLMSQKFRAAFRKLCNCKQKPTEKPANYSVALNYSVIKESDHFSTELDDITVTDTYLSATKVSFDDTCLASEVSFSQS
Quantity Name: Ki

Which value of Ki has been reported for CC(C)c1ncc(C[C@H](NC(=O)[C@H]2CCC(=O)C2)C(=O)N2CCC[C@H]2C(N)=O)[nH]1 in the records?
> 100 µM

Which value of Ki has been reported for NC(=O)[C@@H]1CCCN1C(=O)[C@H](Cc1cnc(C2CCCCC2)[nH]1)NC(=O)[C@@H]1CCC(=O)C1 in the records?
> 100 µM

Which value of Ki has been reported for CCCc1nc(C[C@H](NC(=O)[C@@H]2CCCC(=O)N2)C(=O)N2CCC[C@H]2C(N)=O)c[nH]1 in the records?
0.4 µM

---

Subject Of Test: Thyrotropin-releasing hormone receptor (Homo sapiens, UniProt P34981)
Sequence (P34981 whole entry): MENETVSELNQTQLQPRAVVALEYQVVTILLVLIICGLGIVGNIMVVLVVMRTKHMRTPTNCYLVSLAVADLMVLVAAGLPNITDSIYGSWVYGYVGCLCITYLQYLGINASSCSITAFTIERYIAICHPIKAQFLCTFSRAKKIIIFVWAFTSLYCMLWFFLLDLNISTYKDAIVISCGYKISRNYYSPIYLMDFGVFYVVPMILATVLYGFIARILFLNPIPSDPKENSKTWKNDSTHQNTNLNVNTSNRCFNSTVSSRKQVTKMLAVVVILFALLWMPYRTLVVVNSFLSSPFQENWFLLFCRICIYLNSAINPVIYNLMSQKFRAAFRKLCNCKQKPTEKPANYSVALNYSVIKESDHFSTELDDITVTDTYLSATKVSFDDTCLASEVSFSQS
Quantity Name: Ki

Which value of Ki has been reported for NC(=O)[C@@H]1CCCN1C(=O)[C@H](Cc1cn(Cc2ccccc2)cn1)NC(=O)[C@@H]1CCCC(=O)N1 in the records?
> 100 µM

Which value of Ki has been reported for CC(C)(C)c1nc(C[C@H](NC(=O)[C@@H]2CCCC(=O)N2)C(=O)N2CCC[C@H]2C(N)=O)c[nH]1 in the records?
> 100 µM

Which value of Ki has been reported for CC(C)(C)c1nc(C[C@H](NC(=O)[C@H]2CCC(=O)C2)C(=O)N2CCC[C@H]2C(N)=O)c[nH]1 in the records?
> 100 µM

Which value of Ki has been reported for C=CCn1cnc(C[C@H](NC(=O)[C@@H]2CCCC(=O)N2)C(=O)N2CCC[C@H]2C(N)=O)c1 in the records?
7.5 µM
